- Protocol Notes: Dissociation constant, pKa of the compound
- Assay type: physicochemical
Readout Type: pKa

>  <Compound>
CCC(=O)OC1(c2ccccc2)C2CN(C)CC1CN(C)C2.CS(=O)(=O)O (stereo not drawn)

>  <Experimental Value>
11

$$$$
>  <Compound>
CC1(C)C2CCC1(CS(=O)(=O)O)C(=O)C2.CN1C[C@H]2CN(C)C[C@H](C1)[C@@]2(O)c1ccccc1

>  <Experimental Value>
11.7

$$$$
>  <Compound>
COC1(c2ccccc2)C2CN(C)CC1CN(C)C2 (stereo not drawn)

>  <Experimental Value>
11.7

$$$$

The measured values listed here are drawn from ChEMBL document CHEMBL3271960.
